# Test system: RPMI-8226 leukemia
# test.method.notes: NCI-60 one-dose screen, 48 h
# condition.info: 10 µM unless noted
Compounds without any hit were thinned out: in the full panel of roughly 83,000, 20% have a hit. Active and inactive are the calls of the source. The calls were made as follows: active = growth percent below 10; inactive = the rest.
Give your call using only these classes: True for active, False for inactive

molecule	group
O=C(OC[C@@H]1CO1)c1cccc2c(=O)c3ccccc3[nH]c12	True
CCC/C(=N\NC(N)=O)C(OC)OC	False
CCOC(=O)C(=Cc1cccc(C#N)c1)C(=O)OCC	False

Query: # fetch the recorded call for `C[C@@H](CO)[C@@H]1CC[C@]2(C(=O)N3CCN(C)CC3)CC[C@]3(C)[C@H](CC[C@@H]4[C@@]5(C)CC[C@H](O)C(C)(C)[C@@H]5CC[C@]43C)[C@@H]12` here
Response: False

Query: Lab log entry: `N=C(N)c1ccc(-c2ccc(-c3ccc(Cl)cc3Cl)s2)cc1F` — outcome as called in the assay?
Response: True

Query: What outcome does the record of this test show for `COC(=O)c1c2c(n3ccc(C)cc13)C(=O)c1ccccc1C2=O` ?
Response: False

Query: Hey, what did the test say about C[Se]C(=O)CC1=C2C=C(F)C=CC2/C(=C\c2ccc(S(C)=O)cc2)C1C (centres undefined) ?
Response: True

Query: Short answer needed: outcome of this test for `CCCCCn1sc(=O)n(Cc2ccc(CNC(=O)OCc3ccc4c(Cl)cc(Cl)c(O)c4n3)cc2)c1=O` ?
Response: False

Query: Returns: the outcome recorded for C=C(C)[C@@H]1CC[C@]2(CO)CC[C@]3(C)[C@H](CC[C@@H]4[C@@]5(C)CCC(NCCc6ccc(O)cc6)C(C)(C)[C@@H]5CC[C@]43C)[C@@H]12 (some centres undefined) in this assay.
Response: True

---

# growth per record follows
# Test system: UACC-62 melanoma
# test.method.notes: NCI-60 one-dose screen, 48 h (100 = growth as untreated, 0 = no growth, -100 = all killed)
# condition.info: 10 µM unless noted
Compounds without any hit were thinned out: in the full panel of roughly 83,000, 20% have a hit.
Give the number; % is assumed, so skip it.

Use these answered entries as a reference point.
compound	system	observed.result
Cc1cccc(N2CCN(C(=S)c3ccc4c(c3)OCO4)CC2)c1	UACC-62 melanoma	29.1
CC1=NN(c2ccc(Cl)cc2)CC1(C)N=O (stereo not given)	UACC-62 melanoma	88.2
O=C(CBr)CN1C(=O)c2ccccc2C1=O	UACC-62 melanoma	102
COc1ccc(C(c2cc(OC)c(OC)c(OC)c2)N2CCCC2)cc1 (stereo not given)	UACC-62 melanoma	57.4

API: the following record is the query input.
Query: State growth (UACC-62 melanoma) of `CC[C@H](CC[C@@H](C)[C@H]1CC[C@H]2[C@@H]3CC[C@@H]4CC(=O)/C(=C\c5ccncc5)C[C@]4(C)[C@H]3CC[C@]12C)C(C)C` .
Response: 94.5

---

# System: PC-3 prostate
# test.method.notes: NCI-60 one-dose screen, 48 h
# condition.info: 10 µM unless noted
The panel holds about 83,000 compounds, 20% with a hit somewhere; the sample as a whole holds those more often. Calls of active or inactive are those of the source. How the source made its calls: active means growth percent below 10; inactive means the rest.
Would you mind answering with one of these outcomes? 1 (yes) (active), 0 (no) (inactive)

molecule	group
O=C1Nc2ccc(F)cc2/C1=N/c1nnc(Sc2ccccc2)s1	0 (no)
N#Cc1c(-c2ccccc2)cc(-c2ccccc2)n(CCCC(=O)NO)c1=O	0 (no)
Cn1cc(-c2nn3cc(-c4ccccc4)nc3s2)c2ccccc21	0 (no)
C=CC(=O)N1CCN(c2ccc3cccc(NC(=O)c4cnc(C)cn4)c3n2)CC1	0 (no)
COC(=O)C1=C(C)NC(C)=C(C(=O)OCC(C)C)C1c1ccccc1[N+](=O)[O-] (stereo not drawn)	0 (no)

Query: // param item: `O=C(CCCCl)NNc1nccc(Nc2ccc(S(=O)(=O)Nc3ccncc3)cc2)n1` ; yields the recorded call
Response: 0 (no)

Query: For `C[C@H]1[C@H](C)CC[C@]2(C(=O)O)CC[C@]3(C)C(=CC[C@@H]4[C@@]5(C)C[C@@H](Cc6cn([C@@H]7O[C@H](CO)[C@@H](O)[C@H](O)[C@H]7O)nn6)[C@H](O)C(C)(C)[C@@H]5CC[C@]43C)[C@H]12` , what call appears in the results of this test?
Response: 0 (no)

Query: Kindly provide the recorded test outcome for the following molecule: `CN1CCN(CCCOc2ccc3ncnc(Nc4ccc(Oc5cccc(F)c5)c(Cl)c4)c3c2)CC1`
Response: 1 (yes)

---

# System: TK-10 renal
# test.method.notes: NCI-60 one-dose screen, 48 h
# condition.info: 10 µM unless noted
This is part of a sample that, as a whole, favours compounds with a hit. Of some 83,000 tested, about 20% had one in any assay. Active and inactive are the calls of the source. Rule for the calls: active = growth percent below 10; inactive = the rest.
Return exactly one item of active, inactive

Known results for compounds:
compound	group
O=C(N=Nc1c(O)[nH]c2ccccc12)Nc1ccc(Cl)cc1	inactive
CCOC(=O)C1=C(C)N=C2SC=C(c3ccccc3)N2[C@H]1c1cn[nH]c1-c1ccc(Cl)cc1	inactive
O=C(Nc1ccccc1)c1sc(-c2ccccc2)cc1O	inactive
Cc1ccc(-c2nc(C(Cl)Cl)nc3cc(C)nn23)cc1	inactive

Field: next compound
Query: # outcome recorded in this test, key = `Cc1cccc(N2CCN(C(=S)c3ccc4c(c3)OCO4)CC2)c1`
Response: inactive

---

# Tested on: MDA-MB-435 melanoma
# test.method.notes: NCI-60 one-dose screen, 48 h (100 = growth as untreated, 0 = no growth, -100 = all killed)
# condition.info: 10 µM unless noted
About 83,000 compounds went through this panel and 20% of them were active in at least one assay; those are over-represented in the sample as a whole.
Assign true whenever growth does not fall below 80%; assign false whenever it does.

Query: Does the compound `CCN(CC)S(=O)(=O)c1ccc(S(=O)(=O)N2CCC[C@@H](C(=O)N3CCN(C(=O)OC(C)(C)C)CC3)C2)cc1` have recorded growth that is 80% or more?
Response: false

---

Catalogue of growth values
# Tested on: NCI/ADR-RES ovarian
# test.method.notes: NCI-60 one-dose screen, 48 h (100 = growth as untreated, 0 = no growth, -100 = all killed)
# condition.info: 10 µM unless noted
The panel holds about 83,000 compounds, 20% with a hit somewhere; the sample as a whole holds those more often.
// units = %; emit number, no label

compound	observed.result
COc1ccc(NC(=O)c2sc3nc4c(cc3c2N)CCCC4)cc1	5.47
O=C1c2cc3c(cc2-c2c1c1ccc(Cl)cc1c(=O)n2C[C@H](O)CO)OCO3	3.2
CCOC(=O)c1c2c(n3c1NCC3)-c1ccccc1C2=O	102
CC1CN=C(c2cccc(-c3ccc(-c4ccccc4)o3)c2)N1 (configuration not stated)	28.3

Query: Find growth for C=CC1(C)C(O[Si](C)(C)C(C)(C)C)CC2C3OC(=O)NC31c1cccc3c1[C@H](C(=O)N3C)C2(C)C (some centres not stated) on NCI/ADR-RES ovarian and write it down.
Response: 60.5

Query: Provide NCI/ADR-RES ovarian growth reading for Cc1nc2sc(C(=O)Nc3ccc(Cl)cc3)c(N)c2cc1C(O)c1ccccc1 (configuration not stated) .
Response: 25.8

Query: Determine reported growth for O=c1[nH]cnc2c1C(c1ccc(Br)cc1)c1sc3c(F)cccc3c1O2 (configuration not stated) ; test system: NCI/ADR-RES ovarian.
Response: 100

---

# Test system: RXF 393 renal
# test.method.notes: NCI-60 one-dose screen, 48 h (100 = growth as untreated, 0 = no growth, -100 = all killed)
# condition.info: 10 µM unless noted
This is part of a sample that, as a whole, favours compounds with a hit. Of some 83,000 tested, about 20% had one in any assay.
endpoint.label: growth (%)
Please give a number only; it is taken to be in %.

query.smiles	endpoint.label	observed.result
Nc1c(C(=O)Nc2cccc3ncccc23)sc2nc3c(cc12)C(=O)CCC3	growth	29.3
CCNC(=O)Oc1ccc(/C(=C(/C)Cc2ccc(OC)cc2)c2ccc(OCCN3CCCCCC3)cc2)cc1	growth	68.3
O=C1/C(=C/c2ccc(C(F)(F)F)cc2)COc2ccc(O)c(O)c21	growth	24.5
CN(C)c1ccc(/C=C/C(=O)c2ccccc2)cc1	growth	93.8

Proceeding to the next compound to report its growth.
Query: Report growth, nothing else, for this compound: `CN(C)c1ccc(-c2cc(-c3ccc(Nc4nc(Nc5ccc(Cl)cc5)nc(Nc5ccc(Cl)cc5)n4)cc3)nc(N)c2C#N)cc1`
Response: 37.1

---

Below: a set of entries, each annotated with reported growth.
# System: NCI-H226 lung
# test.method.notes: NCI-60 one-dose screen, 48 h (100 = growth as untreated, 0 = no growth, -100 = all killed)
# condition.info: 10 µM unless noted
This is part of a sample that, as a whole, favours compounds with a hit. Of some 83,000 tested, about 20% had one in any assay.
// units = %; emit number, no label

Below, each entry is followed by its recorded growth result.
molecule	growth (%)
COc1ncc2cc1NS(=O)(=O)c1cccc(c1)C(=O)NCC1=CC=C(S1)c1ncnc3c1SC2=C3C	-30.4
Cc1nc2sc(C(=O)Nc3ccccc3)c(N)c2cc1C(=O)/C=C/c1ccccc1	5.17

Query: Using the record for `O=C(CCCCl)NNc1nccc(Nc2ccc(S(=O)(=O)Nc3ccncc3)cc2)n1` , state its measured growth.
Response: 104

Query: Complete the entry with growth for `CCC/C(=N\NC(N)=O)C(OC)OC`
Response: 108

Query: Provide one value: measured growth of `COc1cc2c(/C=C3\C(=O)Nc4ccccc43)c(C(=O)O)[nH]c2cc1C`
Response: 89.2

Query: Tell me its growth given `CCn1cc(C(=O)NN=C2CCCCCC2)c(=O)c2ccc(C)nc21` as the entry.
Response: 82

Query: Determine its reported growth: `COc1cc2cc(NCc3ccc(OC(F)F)cc3)nc(C)c2cc1OC`
Response: 75.5

Query: State its growth for this molecule: CC1=CCC[C@@H]2C1(C)CC[C@H](C)[C@@]2(C)CC1=CC(=O)C(SC(C)(C)C)=CC1=O (stereo partly specified)
Response: 84.7
